- System: RXF 393 renal
- procedure_details: NCI-60 one-dose screen, 48 h
- assay_setup: 10 µM unless noted
The panel holds about 83,000 compounds, 20% with a hit somewhere; the sample as a whole holds those more often. The source made the active and inactive calls. The calls were made as follows: active = growth percent below 10; inactive = the rest.
Use one of these outcomes when replying: 1 (active), -1 (inactive)

input: Entry `COC12C=C/C(=C(/C(=O)OCc3ccccn3)C(=O)CCCCCCCCC3(OC)C=C/C(=C(/C(=O)OCc4ccccn4)C(=O)CCCCCCCC1)O3)O2` : call = ?
output: 1

input: Entry COc1cc(OCc2cccc(-c3ccccc3)c2C)cc(OC)c1CN1CCCCC1C(=O)NCCOCCOCCN (stereo not drawn) : call = ?
output: -1

input: Entry N#C/C(=C\c1cccc2cnccc12)N1N=NC2C=CC=CC21 (stereo not drawn) : call = ?
output: 1

input: Entry `C#CCOc1cc(/C=N/Nc2nc(-c3ccc(OC)cc3)cs2)ccc1O` : call = ?
output: -1

input: Entry `[2H]C([2H])([2H])Oc1ccc(/C=C/C(=O)/C=C(O)/C=C/c2ccc(OC([2H])([2H])[2H])c(OC([2H])([2H])[2H])c2)cc1OC([2H])([2H])[2H]` : call = ?
output: -1

input: Entry `N=C(N)c1ccc(-c2ccc(-c3ccccc3)s2)nc1` : call = ?
output: -1

input: Entry CCN1C(=O)N(CC)C2C1NN=c1s/c(=C3\C(=O)N(C)c4ccccc43)c(=O)n12 (stereo not drawn) : call = ?
output: 1

input: Entry `COC(=O)c1cc(-c2ccc(OC)c(OC)c2)[nH]c1N/N=C/c1c(Cl)cccc1Cl` : call = ?
output: 1

----------
- System: OVCAR-4 ovarian
- procedure_details: NCI-60 one-dose screen, 48 h (100 = growth as untreated, 0 = no growth, -100 = all killed)
- assay_setup: 10 µM unless noted
About 83,000 compounds went through this panel and 20% of them were active in at least one assay; those are over-represented in the sample as a whole.
Label scheme, based on growth: 1 = under 10%, 2 = from 10% up to 90%, 3 = 90% and over

compound: CC(=O)[C@H]1CC[C@]2(C)[C@@H]1CC[C@@H]1[C@@]3(C)C/C(=C/c4cccnc4)C(=O)C(C)(C)[C@@H]3CC[C@]12C
discrete_label: 2

input: Any idea which band `Cc1c2cnccc2c(C)c2c1c1cc(C(=O)O)ccc1n2C` is in?
output: 1

input: Any idea which band `C#CCOc1cccc(-c2ncnc3cc(NC(=O)CCl)ccc23)c1` is in?
output: 1

input: Any idea which band CCOC(=O)C1=CCC(n2cc(F)c(=O)[nH]c2=O)O1 (centres undefined) is in?
output: 3

input: Any idea which band `CCOC(=O)c1c(NC(=S)Nc2ccc([N+](=O)[O-])cc2)sc2c1CCCCC2` is in?
output: 2

input: Any idea which band Cc1ccc2c(c1)CC(O)CC1C(=O)N(CCO)CC(=O)N21 (centres undefined) is in?
output: 3

input: Any idea which band `CCOC(=O)c1cnc2sc(-c3ccc(OC)cc3)nc2c1Cl` is in?
output: 2

input: Any idea which band `O=C(CSc1nnc(-c2ccc(Cl)c(Cl)c2)n1-c1ccccc1)Nc1ccc(C(=O)/C=C/c2ccc(Cl)cc2)cc1` is in?
output: 3

input: Any idea which band `COc1cc(/C=C2\CN(S(=O)(=O)c3ccc(C)cc3)C/C(=C\c3cc(CN4CCCC4)c(O)c(OC)c3)C2=O)cc(CN2CCCC2)c1O` is in?
output: 2
